experimentalSystem: PI3K-alpha (Homo sapiens, UniProt P42336)
Sequence (P42336 whole entry, species assumed): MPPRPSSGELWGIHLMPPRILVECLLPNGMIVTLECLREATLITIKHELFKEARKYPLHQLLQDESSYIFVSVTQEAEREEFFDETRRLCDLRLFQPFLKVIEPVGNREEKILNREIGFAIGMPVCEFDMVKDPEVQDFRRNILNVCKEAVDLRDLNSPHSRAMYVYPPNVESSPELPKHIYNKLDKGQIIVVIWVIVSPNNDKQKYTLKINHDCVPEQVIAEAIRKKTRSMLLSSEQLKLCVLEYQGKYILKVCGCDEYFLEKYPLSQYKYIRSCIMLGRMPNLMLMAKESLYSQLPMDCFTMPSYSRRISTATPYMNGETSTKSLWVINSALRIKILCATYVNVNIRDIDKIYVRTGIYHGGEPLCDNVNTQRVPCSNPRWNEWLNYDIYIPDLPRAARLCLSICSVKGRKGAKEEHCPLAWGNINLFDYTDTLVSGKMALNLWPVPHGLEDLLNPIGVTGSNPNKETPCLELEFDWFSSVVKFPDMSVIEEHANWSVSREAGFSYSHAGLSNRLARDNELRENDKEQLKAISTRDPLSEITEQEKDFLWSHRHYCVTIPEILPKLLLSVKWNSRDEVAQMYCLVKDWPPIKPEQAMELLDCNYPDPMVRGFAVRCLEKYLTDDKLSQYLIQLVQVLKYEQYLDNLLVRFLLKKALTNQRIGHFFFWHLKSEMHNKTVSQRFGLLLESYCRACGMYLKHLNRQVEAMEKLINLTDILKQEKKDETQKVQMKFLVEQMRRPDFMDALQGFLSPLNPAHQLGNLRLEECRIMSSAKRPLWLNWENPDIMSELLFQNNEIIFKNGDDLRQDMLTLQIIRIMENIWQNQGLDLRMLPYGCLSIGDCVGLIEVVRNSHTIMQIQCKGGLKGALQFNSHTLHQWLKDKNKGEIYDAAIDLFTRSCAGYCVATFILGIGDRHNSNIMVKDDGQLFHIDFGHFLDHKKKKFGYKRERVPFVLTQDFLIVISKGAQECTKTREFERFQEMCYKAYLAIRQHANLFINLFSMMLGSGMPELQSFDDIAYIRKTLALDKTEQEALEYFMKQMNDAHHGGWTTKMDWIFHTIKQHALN
Sequence (P27986 whole entry partner, species assumed): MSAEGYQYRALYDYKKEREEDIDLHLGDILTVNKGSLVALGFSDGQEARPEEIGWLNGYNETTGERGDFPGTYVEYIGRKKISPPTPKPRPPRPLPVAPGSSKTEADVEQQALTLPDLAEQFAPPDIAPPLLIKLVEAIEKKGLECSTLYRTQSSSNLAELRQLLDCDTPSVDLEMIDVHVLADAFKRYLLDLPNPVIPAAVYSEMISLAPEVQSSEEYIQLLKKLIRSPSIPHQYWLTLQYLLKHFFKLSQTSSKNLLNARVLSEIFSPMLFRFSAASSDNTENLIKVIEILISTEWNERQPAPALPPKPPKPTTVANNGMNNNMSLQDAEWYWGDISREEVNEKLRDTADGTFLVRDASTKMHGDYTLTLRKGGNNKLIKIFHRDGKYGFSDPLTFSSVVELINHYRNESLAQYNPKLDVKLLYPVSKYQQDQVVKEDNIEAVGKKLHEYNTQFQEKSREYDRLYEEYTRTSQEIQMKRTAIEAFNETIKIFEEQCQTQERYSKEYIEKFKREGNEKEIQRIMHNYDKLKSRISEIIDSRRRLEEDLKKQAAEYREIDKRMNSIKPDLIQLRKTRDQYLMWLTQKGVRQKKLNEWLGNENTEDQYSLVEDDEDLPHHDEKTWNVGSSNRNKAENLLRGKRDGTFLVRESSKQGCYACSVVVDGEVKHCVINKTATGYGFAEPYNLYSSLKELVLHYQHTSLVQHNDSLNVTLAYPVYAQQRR
assayOverview: PI3K-alpha fluorescence polarization assay
Type: biochemical
assayContext: read-out: PI3Kα Avg. IC50
experimentalReadout: IC50 (nM)

Worked examples, 5 compounds total:
                                   compound  measurementunit  reading
0  COc1ccc2[nH]c(C3CCCCC3)c(/C=C3\Oc4ccc(NC(=O)Nc5ccc(C(=O)N(C)CCN(C)C)cc5)cc4C3=O)c2c1 [Compound 688]               nM      0.3
1  COc1ccc2c(c1)c(/C=C1\Oc3cc(O)cc(O)c3C1=O)cn2CCO [Example 317]               nM       17
2  COc1ccc2c(c1)c(/C=C1\Oc3cc(O)c(C)cc3C1=O)c(C)n2CCN1CCN(C)CC1 [Example 458]               nM      134
3  COc1ccc2c(c1)c(/C=C1\Oc3cc(-c4ccc(NC(C)=O)cc4)ccc3C1=O)cn2CCCN(C)C [Example 426]               nM     6250
4  COc1cc(F)c2[nH]c(-c3c(C)nn(C)c3C)c(/C=C3\Oc4ccc(NC(=O)Nc5ccc(C(=O)N6CCC(N(C)C)CC6)cc5)cc4C3=O)c2c1 [Compound 729]               nM     0.35

1 = O=C1C(=Cc2c[nH]c3ccc(OCc4ccccc4)cc23)Oc2cc(O)cc(O)c21 [Example 52]
2 = CNC(=O)Nc1ccc2c(c1)C(=O)/C(=C/c1c(-c3c(C)n[nH]c3C)[nH]c3c(F)cc(OC)cc13)O2 [Compound 714]
Which of the two gives a bigger number for IC50: 1 or 2 ? State your choice using its label.
1
(1: 1890 nM, 2: 0.55 nM)

----------
experimentalSystem: PI3K-alpha (Homo sapiens)
assayOverview: PI3K-alpha fluorescence polarization assay
Format: biochemical
assayContext: read-out: PI3Kα Avg. IC50
experimentalReadout: IC50 (nM)

>>> print(df.to_string())
                                   compound  experimentalreadout  reading
0  CNC(=O)c1ccc(-c2cccc3c2c(/C=C2\Oc4cc(O)cc(O)c4C2=O)cn3C)cc1 [Example 392]                 IC50      453

A = COc1ccc2c(c1)c(/C=C1\Oc3cc(O)cc(C)c3C1=O)c(C)n2CCN1CCN(C)CC1 [Example 338]
B = COc1ccc2[nH]c(-c3ccccc3)c(C=C3Oc4cccc(O)c4C3=O)c2c1 [Example 79]
C = COc1ccc2c(c1)c(/C=C1\Oc3cc(O)cc(O)c3C1=O)c(-c1c(C)noc1C)n2CCN1CCN(C)CC1 [Example 344]
Thanks in advance: please rank these 3 entries by IC50, highest to lowest. Write the labels, ordered according to the request.
B, A, C

----------
experimentalSystem: UniProt P48736
Sequence (P48736 whole entry, species assumed): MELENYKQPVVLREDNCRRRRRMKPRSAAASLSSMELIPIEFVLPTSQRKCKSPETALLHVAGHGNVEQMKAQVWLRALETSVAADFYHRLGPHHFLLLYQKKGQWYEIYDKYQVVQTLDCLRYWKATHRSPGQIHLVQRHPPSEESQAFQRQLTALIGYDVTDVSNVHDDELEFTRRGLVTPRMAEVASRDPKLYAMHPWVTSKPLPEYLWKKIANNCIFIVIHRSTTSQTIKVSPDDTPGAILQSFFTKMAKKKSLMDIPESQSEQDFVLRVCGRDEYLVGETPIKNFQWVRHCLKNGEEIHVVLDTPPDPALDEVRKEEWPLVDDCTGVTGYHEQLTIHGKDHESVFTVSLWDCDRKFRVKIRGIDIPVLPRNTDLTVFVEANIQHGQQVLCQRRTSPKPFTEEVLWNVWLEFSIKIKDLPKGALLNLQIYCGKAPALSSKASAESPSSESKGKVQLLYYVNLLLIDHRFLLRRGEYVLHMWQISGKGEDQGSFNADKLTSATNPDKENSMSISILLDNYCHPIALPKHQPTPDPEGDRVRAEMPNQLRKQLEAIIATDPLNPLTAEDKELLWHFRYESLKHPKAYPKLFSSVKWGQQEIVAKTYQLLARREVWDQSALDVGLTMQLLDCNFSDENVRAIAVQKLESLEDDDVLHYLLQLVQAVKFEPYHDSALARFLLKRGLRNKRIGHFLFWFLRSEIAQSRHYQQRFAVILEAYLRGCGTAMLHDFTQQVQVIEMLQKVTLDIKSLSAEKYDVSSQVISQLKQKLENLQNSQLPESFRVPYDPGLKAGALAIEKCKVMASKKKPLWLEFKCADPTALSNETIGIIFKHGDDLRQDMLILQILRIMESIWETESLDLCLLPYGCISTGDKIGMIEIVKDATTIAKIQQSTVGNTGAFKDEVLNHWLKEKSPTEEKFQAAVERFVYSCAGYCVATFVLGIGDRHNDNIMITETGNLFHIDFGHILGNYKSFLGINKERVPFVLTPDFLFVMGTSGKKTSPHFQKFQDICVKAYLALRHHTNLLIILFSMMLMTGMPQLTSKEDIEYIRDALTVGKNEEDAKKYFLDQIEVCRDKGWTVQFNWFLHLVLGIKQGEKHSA
assayOverview: PI3K-gamma fluorescence polarization assay
Format: biochemical
assayContext: PI3Kγ Avg. IC50
experimentalReadout: IC50 (nM)

Record excerpt, results attached:
In [3]: df
Out[3]:
                                   molecule  experimentalsystem  reading
0  Cn1c(-c2ccc(F)cc2)c(C=C2Oc3cc(O)cc(O)c3C2=O)c2ccccc21 [Example 200]      UniProt P48736     3070
1  CCn1c(C)c(/C=C2\Oc3ccc(NC(=O)Nc4ccc(C(=O)NCCNC)cc4)cc3C2=O)c2cc(OC)ccc21 [Compound 659]      UniProt P48736      2.2
2  CNC(=O)Nc1ccc2c(c1)C(=O)/C(=C/c1c(-c3c(C)nn(C)c3C)[nH]c3ccc(OC)cc13)O2 [Compound 616]      UniProt P48736      4.8

1 = COc1ccc2c(c1)c(/C=C1\Oc3cc(O)ccc3C1=O)c(C1CC1)n2CCN1CCN(C)CC1 [Example 362]
2 = COc1ccc2c(c1)c(/C=C1\Oc3cc(O)ccc3C1=O)cn2CCCC#N [Compound 511]
3 = O=C1C(=Cc2c(-c3ccccc3)n(Cc3ccccc3)c3ccccc23)Oc2cc(O)cc(O)c21 [Example 149]
4 = CNC(=O)Nc1ccc2c(c1)C(=O)/C(=C/c1c(-c3c(C)nn(C)c3C)n(CCN(C)C)c3ccc(OC)cc13)O2 [Compound 673]
Put the molecules in ascending order of IC50. Your answer should be the labels, listed in the requested order.
4, 2, 1, 3
(4: 61.5 nM, 2: 154 nM, 1: 329 nM, 3: 2010 nM)

A = CNC(=O)Nc1ccc2c(c1)C(=O)/C(=C/c1c(-c3c(C)noc3C)[nH]c3ccc(OC)cc13)O2 [Compound 581]
B = COc1ccc2c(c1)c(/C=C1\Oc3cc(O)cc(O)c3C1=O)c(C(=O)N1CCCC1)n2CCN1CCN(C)CC1 [Example 430]
C = CNCCCNC(=O)Nc1ccc2c(c1)C(=O)/C(=C/c1cn(CCN3CCN(C)CC3)c3ccc(OC)cc13)O2 [Compound 564]
D = CC(=O)Nc1ccc(-c2cccc3c2c(/C=C2\Oc4cc(O)cc(O)c4C2=O)cn3C)cc1 [Example 383]
Arrange these molecules by their IC50, starting with the largest number. Provide the ranking by listing each label in its place in the requested order.
C, D, B, A

A = Cn1cc(C=C2Oc3cc(O)cc(O)c3C2=O)c2cc(F)ccc21 [Example 227]
B = COc1ccc2c(c1)c(/C=C1\Oc3cc(O)ccc3C1=O)c(C)n2CCN1CCCCCC1 [Example 470]
Sorting by IC50 in descending order, would A or B appear first? Returns: label corresponding to the selected item.
A
(A: 7510 nM, B: 656 nM)

A = COc1ccc2[nH]c(CN3CCN(C)CC3)c(/C=C3\Oc4cc(O)cc(O)c4C3=O)c2c1 [Example 346]
B = CNC(=O)Nc1ccc2c(c1)C(=O)/C(=C/c1c(C3CCCCC3)[nH]c3ccc(OC)cc13)O2 [Compound 641]
Smaller IC50 value? Options are A and B Respond using the label that marks the chosen record.
B
(B: 8 nM, A: 55 nM)

----------
experimentalSystem: PI3K-alpha (Homo sapiens)
assayOverview: PI3K-alpha fluorescence polarization assay
Type: biochemical
assayContext: read-out: PI3Kα Avg. IC50
experimentalReadout: IC50 (nM)

>>> print(df.to_string())
                                   molecule         experimentalsystem  measurementunit  reading
0  Cn1c(-c2ccc(Cl)cc2)c(C=C2Oc3cc(O)cc(O)c3C2=O)c2ccccc21 [Example 201]  PI3K-alpha (Homo sapiens)               nM      712
1  Cc1c(C=C2Oc3cc(O)cc(O)c3C2=O)c2ccccc2n1CCCCCl [Example 94]  PI3K-alpha (Homo sapiens)               nM     2240
2  Cn1cc(C=C2Oc3cc(O)cc(O)c3C2=O)c2cccc(Br)c21 [Example 249]  PI3K-alpha (Homo sapiens)               nM     4810
3  CNC(=O)Nc1ccc2c(c1)C(=O)/C(=C/c1c[nH]c3c(CCCN4CCN(C)CC4)cc(OC)cc13)O2 [Compound 583]  PI3K-alpha (Homo sapiens)               nM      222

1 = O=C1C(=Cc2c[nH]c3ccc(O)cc23)Oc2cc(O)cc(O)c21 [Example 164]
2 = Cn1cc(/C=C2\Oc3cc(O)cc(O)c3C2=O)c2c(-c3ccc(O)cc3)cccc21 [Example 379]
Lower IC50: 1 or 2 ? Returns: label corresponding to the selected item.
1
(1: 251 nM, 2: 562 nM)

----------
Below: a set of entries, each annotated with reported IC50.
experimentalSystem: human TOR (Homo sapiens, UniProt P42345)
Construct: FLAG
assayOverview: mTOR enzyme assay (DELFIA, His6-S6K substrate)
Type: biochemical
assayContext: read-out: mTOR Kinase Avg. IC50

Some compounds with recorded IC50:
>>> df
                                     smiles  experimentalreadout  reading
0  COc1ccc2c(c1)c(/C=C1\Oc3cc(O)c(Cl)cc3C1=O)c(C)n2CCN1CCN(C)CC1                 IC50  > 20 µM
1  COc1ccc2[nH]cc(/C=C3\Oc4ccc(NC(=O)Nc5ccc(C(=O)N6CCN(C)CC6)cc5)cc4C3=O)c2c1                 IC50   > 4 µM
2  O=C1/C(=C/c2cn(Cc3ccccc3)c3ccccc23)Oc2cc(O)cc(O)c21                 IC50   > 5 µM
3  CCc1cccc2c(C=C3Oc4cc(O)cc(O)c4C3=O)cn(CCCC#N)c12                 IC50  > 20 µM

Below: the item to evaluate.
The measured IC50 associated with COc1ccc2c(c1)c(/C=C1\Oc3cc(O)c(Br)cc3C1=O)c(C)n2CCCN(C)C reads > 20 µM
